Where these numbers come from: patent US20230382949A1

Biological target: human Apelin receptor (Homo sapiens)
Assay: cAMP accumulation assay (HTRF), functional agonism of human Apelin receptors
Format: cell-based
Settings: pEC50, Human Apelin agonist cAMP assay; CHO cells stably expressing the human Apelin receptor, 3 uM forskolin
Starred links: 1 amine or outer side, 2 acyl side, 3 side chain; linkers in the order of their positions; H or OH if unused. Non-standard residues stand in square brackets, D forms with d. Residues, ends and D or L forms follow the SMILES beside them. *: point of attachment. Ala(piperidin-4-yl) = O=C([C@H](CC1CCN([*:3])CC1)N[*:1])[*:2]; dBip = N[C@H](Cc1ccc(-c2ccccc2)cc1)C(=O)O; Oic = O=C(O)[C@@H]1C[C@@H]2CCCC[C@@H]2N1; Phe(4-Br) = N[C@@H](Cc1ccc(Br)cc1)C(=O)O; X1 = CC(C)(C(=O)NCCc1ccccc1)C(=O)*; hArg = N=C(N)NCCCC[C@H](N)C(=O)O; Aib = CC(C)(N)C(=O)O
measured quantity: EC50
Write your answer as a measured quantity: the number, then the unit.

Query string: Given CC(C)C[C@H](NC(=O)[C@@H](CCCNC(=N)N)NC(=O)[C@@H]1CCCN1C(=O)[C@H](CCCCNC(=N)N)NC(=O)[C@H](CCC(N)=O)NC(=O)C(C)(C)C(=O)NCCc1ccccc1)C(=O)NC(C)(C)C(=O)N[C@@H](Cc1c[nH]cn1)C(=O)N[C@@H](CC1CCNCC1)C(=O)NCC(=O)N1[C@H](C(=O)N[C@@H](Cc2ccc(Br)cc2)C(=O)N2CCC[C@H]2C(=O)N[C@H](Cc2ccc(-c3ccccc3)cc2)C(=O)O)C[C@@H]2CCCC[C@@H]21 [Example 45] (X1-Q[hArg]P[dR]L[Aib]H[Ala(piperidin-4-yl)]G[Oic][Phe(4-Br)]P[dBip]-OH) , state its recorded EC50.
Result string: 39.8 nM

---

Target: human Apelin receptor (Homo sapiens, UniProt P35414)
Sequence (P35414 whole entry): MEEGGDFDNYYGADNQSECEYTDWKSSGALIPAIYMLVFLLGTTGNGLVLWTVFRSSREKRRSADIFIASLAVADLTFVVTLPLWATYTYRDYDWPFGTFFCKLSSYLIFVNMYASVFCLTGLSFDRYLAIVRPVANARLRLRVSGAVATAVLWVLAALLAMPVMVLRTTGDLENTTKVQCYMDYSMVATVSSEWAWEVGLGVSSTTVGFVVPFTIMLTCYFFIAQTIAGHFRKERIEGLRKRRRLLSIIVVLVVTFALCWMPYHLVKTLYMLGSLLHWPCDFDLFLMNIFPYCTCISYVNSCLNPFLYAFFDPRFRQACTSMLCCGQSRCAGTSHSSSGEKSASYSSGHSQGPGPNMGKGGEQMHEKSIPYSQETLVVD
Test: cAMP accumulation assay (HTRF), functional agonism of human Apelin receptors
Format: cell-based
Details: pEC50, Human Apelin agonist cAMP assay; CHO cells stably expressing the human Apelin receptor, 3 uM forskolin
Starred links: 1 amine or outer side, 2 acyl side, 3 side chain; linkers in the order of their positions; H or OH if unused. Non-standard residues stand in square brackets, D forms with d. Residues, ends and D or L forms follow the SMILES beside them. *: point of attachment. Ala(piperidin-4-yl) = O=C([C@H](CC1CCN([*:3])CC1)N[*:1])[*:2]; dBip = N[C@H](Cc1ccc(-c2ccccc2)cc1)C(=O)O; Oic = O=C(O)[C@@H]1C[C@@H]2CCCC[C@@H]2N1; Phe(4-Br) = N[C@@H](Cc1ccc(Br)cc1)C(=O)O; X3 = CC(C)(C(=O)NCCc1ccccn1)C(=O)*; hArg = N=C(N)NCCCC[C@H](N)C(=O)O; Aib = CC(C)(N)C(=O)O
measured quantity: EC50 (µM)
Write the value in µM as a bare number.

Query string: Given CC(C)C[C@H](NC(=O)[C@@H](CCCNC(=N)N)NC(=O)C1C2CC2CN1C(=O)[C@H](CCCCNC(=N)N)NC(=O)[C@H](CCC(N)=O)NC(=O)[C@@H](CCCNC(=N)N)NC(=O)C(C)(C)C(=O)NCCc1c[nH]cn1)C(=O)NC(C)(C)C(=O)N[C@@H](Cc1c[nH]cn1)C(=O)N[C@@H](CC1CCNCC1)C(=O)NCC(=O)N1[C@H](C(=O)N[C@@H](Cc2ccc(Br)cc2)C(=O)N2CCC[C@H]2C(=O)N[C@H](Cc2ccc(-c3ccccc3)cc2)C(=O)O)C[C@@H]2CCCC[C@@H]21 (single isomer, unassigned) [37 Isomer 2] , state its recorded EC50.
Result string: 0.00501

Query string: Given CC(C)C[C@H](NC(=O)[C@@H](CCCNC(=N)N)NC(=O)[C@@H]1CCCN1C(=O)[C@H](CCCCNC(=N)N)NC(=O)[C@H](CCC(N)=O)NC(=O)C(C)(C)C(=O)NCCc1ccccn1)C(=O)NC(C)(C)C(=O)N[C@@H](Cc1c[nH]cn1)C(=O)N[C@@H](CC1CCNCC1)C(=O)NCC(=O)N1[C@H](C(=O)N[C@@H](Cc2ccc(Br)cc2)C(=O)N2CCC[C@H]2C(=O)N[C@H](Cc2ccc(-c3ccccc3)cc2)C(=O)O)C[C@@H]2CCCC[C@@H]21 [Example 46] (X3-Q[hArg]P[dR]L[Aib]H[Ala(piperidin-4-yl)]G[Oic][Phe(4-Br)]P[dBip]-OH) , state its recorded EC50.
Result string: 0.0398
